- experiment_description: Redispersion solubility test of solid dispersions (SGF, then SGF + 2 times volume FaSSIF)
- Assay type: physicochemical
- measurement_context: SGF + 2 times volume FaSSIF, fassif, thermodynamic from solid; Concentration 1 mg/mL, 37° C.; read-out: Redispersion solubility, Step 2: SGF + 2 times volume FaSSIF (0.75 hr)
quantity: solubility at 0.75 h (µg/mL)
Give the quantity in µg/mL, number only.

What measured solubility at 0.75 h goes with O=C1CC[C@H](N2Cc3cc(C(=O)N[C@H](c4ccc(Cl)cn4)C4CCC4)ccc3C2=O)C(=O)N1 [Amorphous form of API] ?
460

====

- experiment_description: Solubility of rapid solvent evaporation products in FaSSIF
- Assay type: physicochemical
- measurement_context: fassif, thermodynamic from solid, 0.75 h
quantity: solubility at 0.75 h (µg/mL)
Response body: numeric value in µg/mL, unit text excluded.

# get_value(readout='solubility at 0.75 h', item= O=C1CC[C@H](N2Cc3cc(C(=O)N[C@H](c4ccc(Cl)cn4)C4CCC4)ccc3C2=O)C(=O)N1 [Amorphous form of API] )
600

====

- experiment_description: Redispersion solubility test of solid dispersions (SGF, then SGF + 2 times volume FaSSIF)
- Assay type: physicochemical
- measurement_context: simulated gastric fluid (SGF), simulated gastric fluid, thermodynamic from solid; Concentration 1 mg/mL, 37° C.; read-out: Redispersion solubility, Step 1: SGF (0.25 hr)
quantity: solubility at 0.25 h (µg/mL)
All answers are understood in µg/mL, so give the number only.

Which solubility at 0.25 h is reported for this compound? O=C1CC[C@H](N2Cc3cc(C(=O)N[C@H](c4ccc(Cl)cn4)C4CCC4)ccc3C2=O)C(=O)N1 [Amorphous form of API]
960

====

- experiment_description: Redispersion solubility test of solid dispersions (SGF, then SGF + 2 times volume FaSSIF)
- Assay type: physicochemical
- measurement_context: SGF + 2 times volume FaSSIF, pH 6.55, fassif, thermodynamic from solid; Concentration 1 mg/mL, 37° C.; read-out: Redispersion solubility, Step 2: SGF + 2 times volume FaSSIF (2.0 hr)
quantity: solubility at 2 h (µg/mL)
Dear colleague, please return just the value in µg/mL, with no unit written.

Fill in: solubility at 2 h of O=C1CC[C@H](N2Cc3cc(C(=O)N[C@H](c4ccc(Cl)cn4)C4CCC4)ccc3C2=O)C(=O)N1 [Amorphous form of API] is ___
270

====

- experiment_description: In vivo pharmacokinetic study of solid dispersions
- Parameters: species or system Sprague Dawley (SD) rats
- measurement_context: Sprague Dawley, rat, po; male SD rats, intragastric 300 mg/kg (as compound of formula A), plasma
quantity: Cmax (ng/mL)
Only the number, expressed in ng/mL, is required.

Looking for the measured Cmax of O=C1CC[C@H](N2Cc3cc(C(=O)N[C@H](c4ccc(Cl)cn4)C4CCC4)ccc3C2=O)C(=O)N1 [Amorphous form of API] , can you help?
18700

====

- experiment_description: Solubility of rapid solvent evaporation products in FaSSIF
- Type: physicochemical
- measurement_context: fassif, thermodynamic from solid, 2 h
quantity: solubility at 2 h (µg/mL)
Please respond with the number in µg/mL and leave the unit unwritten.

Fill in: solubility at 2 h of O=C1CC[C@H](N2Cc3cc(C(=O)N[C@H](c4ccc(Cl)cn4)C4CCC4)ccc3C2=O)C(=O)N1 [Amorphous form of API] is ___
450

====

- experiment_description: Approximate solubility test in solvents
- Format: physicochemical
- measurement_context: organic solvent or mixture, thermodynamic from solid; solvent DCM:MeOH (5:1)
quantity: solubility

# get_value(readout='solubility', item= O=C1CC[C@H](N2Cc3cc(C(=O)N[C@H](c4ccc(Cl)cn4)C4CCC4)ccc3C2=O)C(=O)N1 [compound of formula A] )
50 to 100 mg/mL

====

- experiment_description: Approximate solubility test in solvents
- Format: physicochemical
- measurement_context: organic solvent or mixture, thermodynamic from solid; solvent DCM:MeOH (2:1)
quantity: solubility

Entry `O=C1CC[C@H](N2Cc3cc(C(=O)N[C@H](c4ccc(Cl)cn4)C4CCC4)ccc3C2=O)C(=O)N1` has what solubility?
50 to 100 mg/mL

====

- experiment_description: Approximate solubility test in solvents
- Assay type: physicochemical
- measurement_context: organic solvent or mixture, thermodynamic from solid; solvent DCM:THF (1:1)
quantity: solubility

For O=C1CC[C@H](N2Cc3cc(C(=O)N[C@H](c4ccc(Cl)cn4)C4CCC4)ccc3C2=O)C(=O)N1 [compound of formula A] , what is its reported solubility?
< 5 mg/mL

====

- experiment_description: Redispersion solubility test of solid dispersions (SGF, then SGF + 2 times volume FaSSIF)
- Assay type: physicochemical
- measurement_context: simulated gastric fluid (SGF), simulated gastric fluid, thermodynamic from solid; Concentration 1 mg/mL, 37° C.; read-out: Redispersion solubility, Step 1: SGF (0.5 hr)
quantity: solubility at 0.5 h (µg/mL)
Entry rule: numbers only, all in µg/mL.

Given O=C1CC[C@H](N2Cc3cc(C(=O)N[C@H](c4ccc(Cl)cn4)C4CCC4)ccc3C2=O)C(=O)N1 [Amorphous form of API] , state its recorded solubility at 0.5 h.
980

====

- experiment_description: In vivo pharmacokinetic study of solid dispersions
- Design: species or system Sprague Dawley (SD) rats
- measurement_context: Sprague Dawley, rat, po; male SD rats, intragastric 300 mg/kg (as compound of formula A), plasma
quantity: AUC(0-t) (µg·h/mL)
Numeric answer only, unit µg·h/mL assumed.

Any idea what its AUC(0-t) is? The compound is O=C1CC[C@H](N2Cc3cc(C(=O)N[C@H](c4ccc(Cl)cn4)C4CCC4)ccc3C2=O)C(=O)N1 [Amorphous form of API]
111

====

- experiment_description: Approximate solubility test in solvents
- Type: physicochemical
- measurement_context: organic solvent or mixture, thermodynamic from solid; solvent Acetone:ACN (1:1)
- Method: About 5 mg of the API control of Formula A was weighed into a 1.5 mL glass vial, and then a certain amount of different solvents (as shown in Table 1) were gradually added until the solid dissolved or the total volume reached 1 mL. The compound of formula A has a high approximate solubility in a mixed solvent of DCM and MeOH. […]
quantity: solubility

Which solubility value belongs to `O=C1CC[C@H](N2Cc3cc(C(=O)N[C@H](c4ccc(Cl)cn4)C4CCC4)ccc3C2=O)C(=O)N1` ?
< 5000 µg/mL

====

- experiment_description: In vivo pharmacokinetic study of solid dispersions
- Design: species or system Sprague Dawley (SD) rats
- measurement_context: Sprague Dawley, rat, po; male SD rats, intragastric 300 mg/kg (as compound of formula A), plasma
quantity: Tmax (h)
# unit: h | format: bare number

Would you mind telling me what Tmax value was observed for O=C1CC[C@H](N2Cc3cc(C(=O)N[C@H](c4ccc(Cl)cn4)C4CCC4)ccc3C2=O)C(=O)N1 [Amorphous form of API] ?
1

====

- experiment_description: Approximate solubility test in solvents
- Format: physicochemical
- measurement_context: organic solvent or mixture, thermodynamic from solid; solvent Acetone:THF (1:1)
quantity: solubility

Please report the recorded solubility for `O=C1CC[C@H](N2Cc3cc(C(=O)N[C@H](c4ccc(Cl)cn4)C4CCC4)ccc3C2=O)C(=O)N1` .
< 5000 µg/mL

====

- experiment_description: Approximate solubility test in solvents
- Assay type: physicochemical
- measurement_context: organic solvent or mixture, thermodynamic from solid; solvent DCM:MeOH (7:1)
quantity: solubility

For `O=C1CC[C@H](N2Cc3cc(C(=O)N[C@H](c4ccc(Cl)cn4)C4CCC4)ccc3C2=O)C(=O)N1` , what is its reported solubility?
50 to 100 mg/mL

====

- experiment_description: Approximate solubility test in solvents
- Type: physicochemical
- measurement_context: v/v), organic solvent or mixture, thermodynamic from solid; solvent Acetone:Water (9:1)
quantity: solubility

// query solubility value for entry O=C1CC[C@H](N2Cc3cc(C(=O)N[C@H](c4ccc(Cl)cn4)C4CCC4)ccc3C2=O)C(=O)N1 [compound of formula A]
15 to 50 mg/mL

Cited source: patent US20260199316A1
